- Test system: RKO cells
- assayComment: CRC cell proliferation assay (CCK8), RKO
- Format: cell-based
- runConditions: Homo sapiens, 72 h, BMX alone, 72 hrs, read-out: IC50 of BMX
- Procedure: Three CRC cell lines HT29, HCT116 and RKO were used in this study. […] We plated 4000 CRC cells per well in 96-well plates and allowed them to adhere overnight. […] Following treatment, the absorption value was measured using a CCK8 kit (Targetmol, Shanghai, China) at the indicated time points. […]
parameterMeasured: IC50 (µM)

1. COc1ccc(COc2c(/C=C/C(=O)NO)ccc(OC)c2CC=C(C)C)cc1; 1.5

====

- Tested on: HCT116 cells
- assayComment: CRC cell proliferation assay (CCK8), HCT116
- Format: cell-based
- runConditions: Homo sapiens, HCT-116, 72 h, TMZ alone, 72 hrs, read-out: IC50 of TMZ
parameterMeasured: IC50 (µM)

1. Cn1nnc2c(C(N)=O)ncn2c1=O [TMZ, Temozolomide, reference compound]; 192

====

- Tested on: RKO cells
- assayComment: CRC cell proliferation assay (CCK8), RKO
- Type: cell-based
- runConditions: Homo sapiens, 72 h, TMZ 50 μM combined with different concentrations of BMX, 72 hrs, read-out: IC50 of BMZ
- Procedure: Three CRC cell lines HT29, HCT116 and RKO were used in this study. […] We plated 4000 CRC cells per well in 96-well plates and allowed them to adhere overnight. […] Following treatment, the absorption value was measured using a CCK8 kit (Targetmol, Shanghai, China) at the indicated time points. […]
pIC50: −log10 of the molar value.
parameterMeasured: pIC50

1. COc1ccc(COc2c(/C=C/C(=O)NO)ccc(OC)c2CC=C(C)C)cc1; 6.05

====

- System: HT29 cells
- assayComment: CRC cell proliferation assay (CCK8), HT29
- Type: cell-based
- runConditions: Homo sapiens, HT-29, 48 h, TMZ 50 μM combined with different concentrations of BMX, 48 hrs, read-out: IC50 of BMZ
parameterMeasured: IC50 (µM)

1. COc1ccc(COc2c(/C=C/C(=O)NO)ccc(OC)c2CC=C(C)C)cc1; 9.1

====

- Tested on: RKO cells
- assayComment: CRC cell proliferation assay (CCK8), RKO
- Assay type: cell-based
- runConditions: Homo sapiens, 48 h, TMZ alone, 48 hrs, read-out: IC50 of TMZ
- Method: Three CRC cell lines HT29, HCT116 and RKO were used in this study. […] We plated 4000 CRC cells per well in 96-well plates and allowed them to adhere overnight. […] Following treatment, the absorption value was measured using a CCK8 kit (Targetmol, Shanghai, China) at the indicated time points. […]
pIC50: −log10 of the molar value.
parameterMeasured: pIC50

1) Cn1nnc2c(C(N)=O)ncn2c1=O [TMZ, Temozolomide, reference compound]; 3.00

====

- Tested on: HT29 cells
- assayComment: CRC cell proliferation assay (CCK8), HT29
- Assay type: cell-based
- runConditions: Homo sapiens, HT-29, 24 h, BMX 5 μM combined with different doses of TMZ, 24 hrs, read-out: IC50 of TMZ
pIC50: −log10 of the molar value.
parameterMeasured: pIC50

1) Cn1nnc2c(C(N)=O)ncn2c1=O [TMZ, Temozolomide, reference compound]; < 3.40
